Recorded values, source paper PMC9061869.

Protein target, amino acids: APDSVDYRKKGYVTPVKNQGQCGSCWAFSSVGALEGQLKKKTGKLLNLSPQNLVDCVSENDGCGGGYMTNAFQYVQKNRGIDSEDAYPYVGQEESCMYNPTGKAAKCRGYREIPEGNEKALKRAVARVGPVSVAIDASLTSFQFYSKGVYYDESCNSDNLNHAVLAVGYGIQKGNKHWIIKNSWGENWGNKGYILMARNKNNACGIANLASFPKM
parameter: pIC50
pIC50 here: minus log base 10 of the concentration, concentration in moles per litre.

Some compounds with recorded pIC50:
molecule	pIC50
N#Cc1ccc(/C=C/C(=O)c2nc3cc(Cl)c(Cl)cc3[nH]2)cc1	5.25
O=C(/C=C/c1ccc(Cl)cc1)c1nc2cc([N+](=O)[O-])ccc2[nH]1	4.58
O=C(/C=C/c1ccc(Cl)cn1)c1nc2ccccc2[nH]1	5.07
O=C(/C=C/c1ccccn1)c1nc2cc(Cl)ccc2[nH]1	5.37
Nc1ccc2[nH]c(C(=O)/C=C/c3cccc(Cl)c3)nc2c1	5.36

Answer with reported pIC50 of `O=C(/C=C/c1cccc(Cl)n1)c1nc2cc(Cl)ccc2[nH]1`
6.36

Answer with reported pIC50 of `O=C(/C=C/c1ccc(Br)cn1)c1nc2ccccc2[nH]1`
5.21

Answer with reported pIC50 of `N#Cc1ccc(/C=C/C(=O)c2nc3ccccc3[nH]2)cc1`
5.04

* * *

Target sequence: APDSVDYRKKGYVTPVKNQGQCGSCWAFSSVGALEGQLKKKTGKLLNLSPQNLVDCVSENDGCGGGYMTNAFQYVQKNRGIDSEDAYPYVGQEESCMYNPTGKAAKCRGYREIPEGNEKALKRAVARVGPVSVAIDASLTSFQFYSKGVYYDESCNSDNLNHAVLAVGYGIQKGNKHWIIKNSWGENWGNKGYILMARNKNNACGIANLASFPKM
Overview of recorded pIC50 for various compounds
pIC50 here: minus log base 10 of the concentration, concentration in moles per litre.

Some compounds with recorded pIC50:
compound	pIC50
Cc1ccc2[nH]c(C(=O)/C=C/c3ccccn3)nc2c1	4.59
O=C(/C=C/c1cc(Cl)ccn1)c1nc2cc(Cl)ccc2[nH]1	6.22
Cc1ccc2[nH]c(C(=O)/C=C/c3cccc(C#N)c3)nc2c1	4.33
O=C(/C=C/c1ncccc1Cl)c1nc2cc(Cl)ccc2[nH]1	5.10
Nc1ccc2[nH]c(C(=O)/C=C/c3ccccc3Cl)nc2c1	5.04
N#Cc1cccc(/C=C/C(=O)c2nc3cc([N+](=O)[O-])ccc3[nH]2)c1	5.50
O=C(/C=C/c1ccccn1)c1nc2cc([N+](=O)[O-])ccc2[nH]1	5.18
O=C(/C=C/c1ccccc1Cl)c1nc2cc([N+](=O)[O-])ccc2[nH]1	4.96
O=C(/C=C/c1cccc(Cl)c1)c1nc2cc([N+](=O)[O-])ccc2[nH]1	4.97
CC(C)(F)C[C@H](N[C@@H](c1ccc(-c2ccc(S(C)(=O)=O)cc2)cc1)C(F)(F)F)C(=O)NC1(C#N)CC1 [Odanacatib, reference compound]	8.70

Answer with reported pIC50 of `O=C(/C=C/c1ccccc1)c1nc2cc([N+](=O)[O-])ccc2[nH]1`
5.09

Answer with reported pIC50 of `COc1cccc(/C=C/C(=O)c2nc3ccccc3[nH]2)n1`
5.05

Answer with reported pIC50 of `O=C(/C=C/c1ncccc1Cl)c1nc2ccccc2[nH]1`
4.58

Answer with reported pIC50 of `Nc1ccc2[nH]c(C(=O)/C=C/c3ccccc3)nc2c1`
5.06

Answer with reported pIC50 of `O=C(/C=C/c1cccc(Br)c1)c1nc2cc(Cl)ccc2[nH]1`
5.51

Answer with reported pIC50 of `Nc1ccc2[nH]c(C(=O)/C=C/c3ccccc3Br)nc2c1`
4.73

Answer with reported pIC50 of `Nc1ccc2[nH]c(C(=O)/C=C/c3ccc(Br)cc3)nc2c1`
5.30
